Tested on: HeLa
Assay: Antiproliferative activity against human HeLa cells assessed as inhibition of cell growth incubated for 72 hrs in absence of verapamil by MTT assay
Type: functional, cell-based
Parameter: pIC50. Scope: all listed entries.
Remember the convention: pIC50 equals -log10 of concentration in molar.

> print(dat)
                                smiles.text  quantity.name  reported.measurement
1  CCN(c1ccc2c(ccn2C)c1)S(=O)(=O)c1cc(OC)c(OC)c(OC)c1          pIC50                  6.91
2  COc1cc(S(=O)(=O)Nc2ccc3c(c2)c(C#N)cn3C)cc(OC)c1OC          pIC50                  7.37
3  COc1cc(S(=O)(=O)N(C)c2ccc3c(c2)c(C(N)=O)cn3C)cc(OC)c1OC          pIC50                  7.61

Field pIC50 (system: HeLa) for entry COc1cc(S(=O)(=O)Nc2ccc3c(c2)c(C(N)=O)cn3C)cc(OC)c1OC = 6.99

So the reported pIC50 for COc1cc2c(c(OC)c1OC)-c1ccc(OC)c(=O)cc1[C@@H](NC(C)=O)CC2 , on HeLa, turned out to be 7.78
